# measuredTarget: T1, CRBN, Q96SW2;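 note: pooled lentiviral library of zinc finger degron-EGFP fusions in mCherry-positive Jurkat cells, FACS-sorted after compound exposure, with degron abundance counted by next-generation sequencing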
# T1 chain: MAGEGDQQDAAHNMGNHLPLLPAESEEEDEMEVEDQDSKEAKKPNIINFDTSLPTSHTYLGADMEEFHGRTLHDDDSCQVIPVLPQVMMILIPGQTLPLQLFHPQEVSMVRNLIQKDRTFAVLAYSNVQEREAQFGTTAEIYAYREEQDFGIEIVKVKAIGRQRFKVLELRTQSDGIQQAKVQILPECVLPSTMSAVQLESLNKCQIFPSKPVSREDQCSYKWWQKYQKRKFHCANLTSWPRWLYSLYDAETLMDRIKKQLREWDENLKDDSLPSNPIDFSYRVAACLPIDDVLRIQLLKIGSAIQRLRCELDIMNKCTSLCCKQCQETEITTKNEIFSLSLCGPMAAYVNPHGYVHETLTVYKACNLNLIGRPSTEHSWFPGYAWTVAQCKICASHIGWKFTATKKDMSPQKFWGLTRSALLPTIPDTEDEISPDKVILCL
# procedureDetails: log2 fold change of degron read counts, EGFP-low vs EGFP+ sorted cells (limma voom), compound-induced degradation; higher = more compound-induced degradation of the degron-EGFP fusion; degrons are variants of IKZF1/3 zinc finger 2; compound dose not given here
# protocolConditions: Jurkat; 18 h; compound: compound 33 (diphenyl IMiD analogue)
Over roughly 8,300 sequences, “log2 fold change of degron read counts, EGFP-low vs EGFP+ sorted cells (limma voom), compound-induced degradation” has its median near -1.1; the highest 2% begin near 3.2. What follows is part of a selection rich in the highest values, with near analogues and random picks from the rest.
Entries and their log2 fold change of degron read counts values follow.
Enter a number only.

Reference set (3 entries):
residues | endpointName | valueMeasured
FRCEICGHQFTQKGNLLRHIKL [46F_47R_49E_50I_52G_53H_54Q_55F_67L_, Q9UKT9] | log2 fold change of degron read counts | -2.48
FCCEICGAEFTQKGNLLRHIKL [46F_47C_49E_50I_52G_53A_54E_55F_67L_, Q9UKT9] | log2 fold change of degron read counts | 0.921
FKCSVCGHMFTQKGNLLRHIKL [46F_47K_49S_50V_52G_53H_54M_55F_67L_, Q9UKT9] | log2 fold change of degron read counts | -3.02

Attention now shifts to the item below.
# input Which log2 fold change of degron read counts is reported for this sequence? FYCEICGAEFTQKGNLLRHIKL [46F_47Y_49E_50I_52G_53A_54E_55F_67L_, Q9UKT9]
# output 2.06
